# Tested on: LRRK2
# TEST DETAILS: Cellular degradation of LRRK2, Western blot in MEFs
# Type: cell-based, Mouse
# EXPERIMENTAL CONTEXT: Western blot, time course, 0 nM-1000 nM
ASSAY READOUT: degradation of LRRK2 (total level)

1) CC1(Oc2ccc3[nH]nc(-c4cc(N5CCN(C(=O)CCOCCNc6cccc7c6C(=O)N(C6CCC(=O)NC6=O)C7)CC5)ncn4)c3c2)CC1 (stereo not shown) : Some degradation
2) Cc1ncsc1-c1ccc([C@H](C)NC(=O)[C@@H]2C[C@@H](O)CN2C(=O)[C@@H](NC(=O)CCOCCOCCOCCOCCC(=O)N2CCN(c3cc(-c4n[nH]c5ccc(OC6(C)CC6)cc45)ncn3)CC2)C(C)(C)C)cc1 : No degradation
3) CNc1nc(Nc2ccc(C(=O)N3CCN(CCOCCOCCOCCNc4cccc5c4C(=O)N(C4CCC(=O)NC4=O)C5=O)CC3)cc2OC)ncc1C(F)(F)F (stereo not shown) : did not degrade
4) CNc1nc(Nc2ccc(C(=O)N3CCN(C(=O)CCOCCOCCOCCOCCNc4cccc5c4C(=O)N(C4CCC(=O)NC4=O)C5=O)CC3)cc2OC)ncc1C(F)(F)F (stereo not shown) : did not degrade
5) Cc1ncsc1-c1ccc([C@@H](C)NC(=O)[C@H]2C[C@H](O)CN2C(=O)[C@H](NC(=O)CCOCCOCCOCCC(=O)N2CCN(c3cc(-c4n[nH]c5ccc(OC6(C)CC6)cc45)ncn3)CC2)C(C)(C)C)cc1 : No degradation
6) CC1(Oc2ccc3[nH]nc(-c4cc(N5CCN(C(=O)CCOCCOCCOCCOCCNc6cccc7c6C(=O)N(C6CCC(=O)NC6=O)C7)CC5)ncn4)c3c2)CC1 (stereo not shown) : Some degradation

Enquiry: Look at this compound and give its reported degradation of LRRK2 (total level). CNc1nc(Nc2ccc(C(=O)N3CCN(C(=O)CCCCCCCCOc4cccc5c4C(=O)N(C4CCC(=O)NC4=O)C5=O)CC3)cc2OC)ncc1C(F)(F)F (stereo not shown)
Return: did not degrade

Enquiry: Look at this compound and give its reported degradation of LRRK2 (total level). CC1(Oc2ccc3[nH]nc(-c4cc(N5CCN(C(=O)CCOCCOCCOCCOCCNc6cccc7c6C(=O)N(C6CCC(=O)NC6=O)C7=O)CC5)ncn4)c3c2)CC1 (stereo not shown)
Return: decreased

Enquiry: Look at this compound and give its reported degradation of LRRK2 (total level). CC1(Oc2ccc3[nH]nc(-c4cc(N5CCN(C(=O)CCOCCOCCNc6cccc7c6C(=O)N(C6CCC(=O)NC6=O)C7=O)CC5)ncn4)c3c2)CC1 (stereo not shown)
Return: decreased

Enquiry: Look at this compound and give its reported degradation of LRRK2 (total level). CNc1nc(Nc2ccc(C(=O)N3CCN(C(=O)CCOCCOCCNc4cccc5c4C(=O)N(C4CCC(=O)NC4=O)C5=O)CC3)cc2OC)ncc1C(F)(F)F (stereo not shown)
Return: did not degrade

====

# SYSTEM: LRRK2 G2019S (Homo sapiens, UniProt Q5S007, G2019S)
# Sequence (Q5S007 whole entry G2019S): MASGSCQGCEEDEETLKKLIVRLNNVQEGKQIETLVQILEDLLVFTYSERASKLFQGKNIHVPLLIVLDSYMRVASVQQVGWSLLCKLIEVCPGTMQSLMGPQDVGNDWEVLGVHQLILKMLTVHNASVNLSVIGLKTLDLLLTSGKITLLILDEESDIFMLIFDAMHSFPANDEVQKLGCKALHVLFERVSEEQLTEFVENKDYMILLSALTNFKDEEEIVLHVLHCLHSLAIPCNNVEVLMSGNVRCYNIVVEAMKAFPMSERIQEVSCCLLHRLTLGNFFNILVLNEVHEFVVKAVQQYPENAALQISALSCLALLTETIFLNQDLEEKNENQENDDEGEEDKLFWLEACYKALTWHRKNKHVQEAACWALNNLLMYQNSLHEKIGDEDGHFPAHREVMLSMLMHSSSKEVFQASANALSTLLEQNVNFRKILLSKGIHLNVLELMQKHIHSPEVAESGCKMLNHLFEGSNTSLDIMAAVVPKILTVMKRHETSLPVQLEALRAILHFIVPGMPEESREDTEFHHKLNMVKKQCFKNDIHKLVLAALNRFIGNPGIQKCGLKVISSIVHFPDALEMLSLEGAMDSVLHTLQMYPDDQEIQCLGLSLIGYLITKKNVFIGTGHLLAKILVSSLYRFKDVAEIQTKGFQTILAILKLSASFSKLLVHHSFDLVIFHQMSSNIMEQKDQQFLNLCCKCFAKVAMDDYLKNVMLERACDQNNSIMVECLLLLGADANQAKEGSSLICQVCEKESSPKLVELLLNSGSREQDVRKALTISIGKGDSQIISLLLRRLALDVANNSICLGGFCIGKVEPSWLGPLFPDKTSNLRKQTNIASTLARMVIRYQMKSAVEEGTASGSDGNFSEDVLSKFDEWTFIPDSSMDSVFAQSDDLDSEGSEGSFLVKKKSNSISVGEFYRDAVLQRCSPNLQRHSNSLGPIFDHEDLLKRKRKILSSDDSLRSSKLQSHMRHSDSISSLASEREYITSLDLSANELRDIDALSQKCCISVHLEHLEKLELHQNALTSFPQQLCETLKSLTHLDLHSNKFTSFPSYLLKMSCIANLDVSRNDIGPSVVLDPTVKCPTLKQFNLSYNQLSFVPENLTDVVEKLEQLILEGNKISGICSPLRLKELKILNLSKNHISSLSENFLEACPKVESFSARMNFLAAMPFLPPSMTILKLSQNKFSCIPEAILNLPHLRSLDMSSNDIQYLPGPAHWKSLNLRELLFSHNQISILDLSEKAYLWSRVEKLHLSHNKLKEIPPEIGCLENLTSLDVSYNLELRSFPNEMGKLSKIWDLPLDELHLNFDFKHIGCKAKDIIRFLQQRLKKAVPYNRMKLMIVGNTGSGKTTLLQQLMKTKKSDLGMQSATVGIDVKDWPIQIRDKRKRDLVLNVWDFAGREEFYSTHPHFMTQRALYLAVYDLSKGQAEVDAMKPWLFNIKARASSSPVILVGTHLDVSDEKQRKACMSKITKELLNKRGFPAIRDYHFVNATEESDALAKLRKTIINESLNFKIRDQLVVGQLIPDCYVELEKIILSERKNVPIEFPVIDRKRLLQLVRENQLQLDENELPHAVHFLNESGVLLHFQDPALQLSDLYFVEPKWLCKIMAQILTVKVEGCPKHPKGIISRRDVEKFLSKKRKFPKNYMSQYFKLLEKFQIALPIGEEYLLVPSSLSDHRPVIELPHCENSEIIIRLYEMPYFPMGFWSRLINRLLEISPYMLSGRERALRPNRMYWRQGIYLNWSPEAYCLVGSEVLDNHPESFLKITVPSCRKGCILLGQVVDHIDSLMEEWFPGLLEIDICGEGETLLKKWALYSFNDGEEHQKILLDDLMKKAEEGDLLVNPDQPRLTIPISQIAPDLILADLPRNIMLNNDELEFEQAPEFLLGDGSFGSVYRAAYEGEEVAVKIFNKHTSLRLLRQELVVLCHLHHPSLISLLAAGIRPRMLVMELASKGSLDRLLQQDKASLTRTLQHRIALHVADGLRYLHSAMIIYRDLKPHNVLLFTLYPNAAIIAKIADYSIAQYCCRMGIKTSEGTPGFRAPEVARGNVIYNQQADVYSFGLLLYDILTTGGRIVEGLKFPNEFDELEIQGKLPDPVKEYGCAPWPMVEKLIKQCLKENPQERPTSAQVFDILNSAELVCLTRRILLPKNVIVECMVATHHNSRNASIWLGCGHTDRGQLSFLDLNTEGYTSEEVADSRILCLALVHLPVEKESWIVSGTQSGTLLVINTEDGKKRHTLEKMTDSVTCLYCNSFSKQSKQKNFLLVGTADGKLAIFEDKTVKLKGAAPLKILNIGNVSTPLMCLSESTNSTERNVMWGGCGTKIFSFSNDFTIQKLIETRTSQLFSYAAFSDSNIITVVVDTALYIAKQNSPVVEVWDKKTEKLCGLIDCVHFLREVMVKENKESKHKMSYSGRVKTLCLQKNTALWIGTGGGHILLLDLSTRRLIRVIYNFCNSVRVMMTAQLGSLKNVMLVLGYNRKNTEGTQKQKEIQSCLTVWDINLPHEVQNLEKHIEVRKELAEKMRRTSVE
# TEST DETAILS: IC50 experiments, Invitrogen Adapta assay, LRRK2 G2019S
# Protocol: IC50 experiments were performed using Invitrogen™'s Adapta™ assay.
Measured IC50 by item
Report the value in nM with no unit label.

1. CC1(Oc2ccc3[nH]nc(-c4cc(N5CCN(C(=O)CCOCCOCCOCCOCCNc6cccc7c6C(=O)N(C6CCC(=O)NC6=O)C7)CC5)ncn4)c3c2)CC1 (stereo not drawn) : 3.16
2. CNc1nc(Nc2ccc(C(=O)N3CCN(C(=O)CCCCCCCCOc4cccc5c4C(=O)N(C4CCC(=O)NC4=O)C5=O)CC3)cc2OC)ncc1C(F)(F)F (stereo not drawn) : 1

Attention now turns to another entry.
Enquiry: Look at this molecule and give its reported IC50. CC1(Oc2ccc3[nH]nc(-c4cc(N5CCN(C(=O)CCOCCNc6cccc7c6C(=O)N(C6CCC(=O)NC6=O)C7)CC5)ncn4)c3c2)CC1 (stereo not drawn)
Return: 1.47

====

# SYSTEM: LRRK2 G2019S (Homo sapiens, UniProt Q5S007, G2019S)
# TEST DETAILS: IC50 experiments, Invitrogen Adapta assay, LRRK2 G2019S
Criterion: IC50 strictly less than 2 nM. Met: yes (1). Not met: no (0).

As a guide, the following entries are already answered.
1) CC1(Oc2ccc3[nH]nc(-c4cc(N5CCN(C(=O)CCOCCOCCOCCOCCNc6cccc7c6C(=O)N(C6CCC(=O)NC6=O)C7=O)CC5)ncn4)c3c2)CC1 (stereo not drawn) : yes (1)
2) CC1(Oc2ccc3[nH]nc(-c4cc(N5CCN(C(=O)CCOCCOCCNc6cccc7c6C(=O)N(C6CCC(=O)NC6=O)C7)CC5)ncn4)c3c2)CC1 (stereo not drawn) : no (0)
3) CC1(Oc2ccc3[nH]nc(-c4cc(N5CCN(C(=O)CCOCCNc6cccc7c6C(=O)N(C6CCC(=O)NC6=O)C7=O)CC5)ncn4)c3c2)CC1 (stereo not drawn) : yes (1)
4) CC1(Oc2ccc3[nH]nc(-c4cc(N5CCN(C(=O)CCOCCOCCNc6cccc7c6C(=O)N(C6CCC(=O)NC6=O)C7=O)CC5)ncn4)c3c2)CC1 (stereo not drawn) : yes (1)

We next turn to a different molecule, shown below.
Enquiry: Just wondering, is IC50 of CNc1nc(Nc2ccc(C(=O)N3CCN(C(=O)CCOCCOCCNc4cccc5c4C(=O)N(C4CCC(=O)NC4=O)C5=O)CC3)cc2OC)ncc1C(F)(F)F (stereo not drawn) below 2 nM?
Return: yes (1)

====

Measured pIC50 by item
# SYSTEM: LRRK2 wt (Homo sapiens, UniProt Q5S007)
# Sequence (Q5S007 whole entry): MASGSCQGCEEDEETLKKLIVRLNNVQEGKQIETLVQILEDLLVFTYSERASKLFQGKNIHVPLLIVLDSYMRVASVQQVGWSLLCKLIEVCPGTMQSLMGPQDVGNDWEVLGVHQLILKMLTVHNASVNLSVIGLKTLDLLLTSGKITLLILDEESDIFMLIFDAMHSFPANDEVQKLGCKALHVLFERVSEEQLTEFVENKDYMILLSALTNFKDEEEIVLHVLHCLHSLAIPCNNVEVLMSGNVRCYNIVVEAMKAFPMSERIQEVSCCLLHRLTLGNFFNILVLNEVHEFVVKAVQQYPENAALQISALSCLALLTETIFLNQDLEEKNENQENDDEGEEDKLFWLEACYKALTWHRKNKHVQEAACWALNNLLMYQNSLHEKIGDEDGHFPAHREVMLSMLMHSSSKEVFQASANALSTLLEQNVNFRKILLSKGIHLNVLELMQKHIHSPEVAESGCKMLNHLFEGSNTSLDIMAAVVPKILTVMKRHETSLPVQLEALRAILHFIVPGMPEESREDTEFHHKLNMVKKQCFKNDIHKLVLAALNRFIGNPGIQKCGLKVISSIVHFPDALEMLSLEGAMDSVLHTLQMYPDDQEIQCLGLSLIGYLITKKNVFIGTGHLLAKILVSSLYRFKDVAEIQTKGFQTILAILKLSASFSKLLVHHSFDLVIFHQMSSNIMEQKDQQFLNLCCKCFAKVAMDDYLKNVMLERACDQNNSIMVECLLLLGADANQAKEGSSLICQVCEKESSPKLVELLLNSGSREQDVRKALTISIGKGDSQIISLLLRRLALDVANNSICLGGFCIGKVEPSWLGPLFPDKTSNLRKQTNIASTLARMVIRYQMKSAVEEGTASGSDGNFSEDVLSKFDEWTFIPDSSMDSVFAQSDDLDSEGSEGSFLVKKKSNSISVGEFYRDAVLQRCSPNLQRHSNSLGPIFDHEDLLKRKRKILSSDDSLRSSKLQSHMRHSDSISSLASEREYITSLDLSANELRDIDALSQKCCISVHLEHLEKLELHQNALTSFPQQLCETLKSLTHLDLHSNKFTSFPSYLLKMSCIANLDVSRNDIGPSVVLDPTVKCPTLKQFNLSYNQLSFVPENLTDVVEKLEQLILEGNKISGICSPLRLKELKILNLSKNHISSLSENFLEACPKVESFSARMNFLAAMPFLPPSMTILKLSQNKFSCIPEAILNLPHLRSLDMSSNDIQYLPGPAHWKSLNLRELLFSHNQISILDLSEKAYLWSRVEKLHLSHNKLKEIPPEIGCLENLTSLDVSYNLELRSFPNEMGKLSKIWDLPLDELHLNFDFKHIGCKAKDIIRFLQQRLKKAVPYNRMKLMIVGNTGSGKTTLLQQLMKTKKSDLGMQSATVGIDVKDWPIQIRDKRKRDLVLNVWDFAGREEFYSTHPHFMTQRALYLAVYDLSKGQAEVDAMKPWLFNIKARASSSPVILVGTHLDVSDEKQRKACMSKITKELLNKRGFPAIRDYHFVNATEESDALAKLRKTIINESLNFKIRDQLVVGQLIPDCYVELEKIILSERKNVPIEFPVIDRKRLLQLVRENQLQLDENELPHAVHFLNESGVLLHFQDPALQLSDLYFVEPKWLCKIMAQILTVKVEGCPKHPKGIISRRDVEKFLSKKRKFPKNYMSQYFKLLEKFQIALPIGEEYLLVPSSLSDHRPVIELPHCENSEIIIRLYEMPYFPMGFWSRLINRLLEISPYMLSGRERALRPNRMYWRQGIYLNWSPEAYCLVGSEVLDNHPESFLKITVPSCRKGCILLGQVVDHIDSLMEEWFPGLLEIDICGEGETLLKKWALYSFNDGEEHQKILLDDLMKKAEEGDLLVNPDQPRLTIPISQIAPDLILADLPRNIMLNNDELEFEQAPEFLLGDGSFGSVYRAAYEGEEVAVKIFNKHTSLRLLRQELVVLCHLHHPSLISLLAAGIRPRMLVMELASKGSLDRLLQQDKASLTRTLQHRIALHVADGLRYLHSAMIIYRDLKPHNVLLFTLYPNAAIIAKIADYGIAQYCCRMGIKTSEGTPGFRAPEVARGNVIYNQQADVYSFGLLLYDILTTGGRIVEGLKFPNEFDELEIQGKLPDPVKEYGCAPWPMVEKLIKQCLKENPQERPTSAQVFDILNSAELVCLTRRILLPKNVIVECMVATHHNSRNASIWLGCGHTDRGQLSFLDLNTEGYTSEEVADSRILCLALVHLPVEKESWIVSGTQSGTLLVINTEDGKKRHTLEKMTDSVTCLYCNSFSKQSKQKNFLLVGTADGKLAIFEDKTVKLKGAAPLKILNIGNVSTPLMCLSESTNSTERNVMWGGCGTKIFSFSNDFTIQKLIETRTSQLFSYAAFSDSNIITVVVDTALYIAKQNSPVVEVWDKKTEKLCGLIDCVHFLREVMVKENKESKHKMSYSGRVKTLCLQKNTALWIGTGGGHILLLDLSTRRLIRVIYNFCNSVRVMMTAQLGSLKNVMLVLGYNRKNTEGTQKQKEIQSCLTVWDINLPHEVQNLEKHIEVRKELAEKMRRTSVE
In plain terms, pIC50 is the concentration in mol/L turned into minus its base-10 logarithm.

1) CNc1nc(Nc2ccc(C(=O)N3CCN(C(=O)CCOCCOCCOCCOCCNc4cccc5c4C(=O)N(C4CCC(=O)NC4=O)C5=O)CC3)cc2OC)ncc1C(F)(F)F (centres unmarked) : 8.40
2) CC1(Oc2ccc3[nH]nc(-c4cc(N5CCN(C(=O)CCOCCOCCNc6cccc7c6C(=O)N(C6CCC(=O)NC6=O)C7=O)CC5)ncn4)c3c2)CC1 (centres unmarked) : 8.91
3) CC1(Oc2ccc3[nH]nc(-c4cc(N5CCN(C(=O)CCOCCOCCNc6cccc7c6C(=O)N(C6CCC(=O)NC6=O)C7)CC5)ncn4)c3c2)CC1 (centres unmarked) : 8.59

Enquiry: Provide value of pIC50 for this record tested with LRRK2 wt (Homo sapiens, UniProt Q5S007): CNc1nc(Nc2ccc(C(=O)N3CCN(C(=O)CCCCCCCCOc4cccc5c4C(=O)N(C4CCC(=O)NC4=O)C5=O)CC3)cc2OC)ncc1C(F)(F)F (centres unmarked)
Return: 8.70

Enquiry: Provide value of pIC50 for this record tested with LRRK2 wt (Homo sapiens, UniProt Q5S007): CNc1nc(Nc2ccc(C(=O)N3CCN(C(=O)CCOCCOCCNc4cccc5c4C(=O)N(C4CCC(=O)NC4=O)C5=O)CC3)cc2OC)ncc1C(F)(F)F (centres unmarked)
Return: 8.70
